Values compiled from patent US20120213771A1.

# Target under test: T1, recombinant human CD27/TNFRSF7/Fc chimera (R&D Systems Catalog No. 382-CD) (UniProt P26842 20-191)
# T1 chain: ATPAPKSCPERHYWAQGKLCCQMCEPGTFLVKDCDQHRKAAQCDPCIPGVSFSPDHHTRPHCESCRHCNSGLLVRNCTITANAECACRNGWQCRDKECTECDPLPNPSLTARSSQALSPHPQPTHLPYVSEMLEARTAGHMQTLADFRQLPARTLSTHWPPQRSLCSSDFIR
# Test details: Biacore SPR
pKd: −log10 of the molar value.
// label = TRUE if pKd is not less than 10, otherwise FALSE

// known answers, use as guide
1G5-1B9 (antibody, V domains shown) VH: QVQLVESGGGVVQPGRSLRLSCAASGFSFSSYGMHWVRQAPGKGLEWVALLWYDGSHKDFADSVKGRFTISRDNSKNTLDLQMNSLRAEDTAVYYCAREGLAVPGHWYFDLWGRGTLVTVSS VL: AIQLTQSPSSLSASVGDRVTITCRASQGISSALAWYQQKPGKAPKLLIYDASSLESGVPSRFSGSGSGTDFTLTISSLQPEDFATYYCQQFNTYPRTFGQGTKVEIK = FALSE
2G9-1D11 (antibody, V domains shown) VH: QVQLVESGGGVVQPGRSLRLSCAASGFTLSSHDIHWVRQAPGKGLEWVAVIWNDGSNKYYADSVKGRFTISRDNSTNSLFLQMNSLRAEDTAVYYCVRGTADLEHWDQGTLVTVSS VL: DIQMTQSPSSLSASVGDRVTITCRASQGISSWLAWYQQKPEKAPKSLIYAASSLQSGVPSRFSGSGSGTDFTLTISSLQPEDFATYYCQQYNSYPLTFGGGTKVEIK = TRUE
3A10-G10 (antibody, V domains shown) VH: QVQLVESGGGVVQPGRSLRLSCAASGFTFSHYGMHWVRQAPGKGPEWVAIIWYDGSNKYYADSVKGRFTISRDNSKNTLDLQMNSLRAEDTAVYYCARDGWTTMVRGLNVFDIWGQGTMVTVSS VL: DIQMTQSPSSLSASVGDRVTITCRASQDISSWLAWYQQKPEKAPKSLIYAASSLQSGVPSRFSGSGSGTDFTLTISSLQPEDFATYYCQQYNSYPPTFGQGTRLEIK = FALSE

Next binder, please.
Q: Given the entry 3H12-1E12 (antibody, V domains shown) VH: QVQLVESGGGVVQPGRSLRLSCATSGFTFSSYDMHWVRQAPGKGLEWVAVIWYDGSNKYYADSVKGRFTISRDNSKNTLYLQMNSLGDEDTAVYYCARGSGNWGFFDYWGQGTLVTVSS VL: DIQMTQSPSSLSASVGDRVTITCRASQGISRWLAWYQQKPEKAPKSLIYAASSLQSGVPSRFSGSGSGTDFTLTISSLQPEDFATYYCQQYNTYPRTFGQGTKVEIK , answer whether its pKd meets or surpasses 10.
A: FALSE
